- System: Escherichia coli TOP10;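 note: peptides expressed intracellularly from a pBAD plasmid library in pooled LB shake-flask culture, induced with 0.3% L-arabinose, DNA abundance read by NGS, three biological replicates, DESeq2 with apeglm shrinkage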
- Assay Method Text: shrunken log2 fold change of peptide-encoding DNA abundance (4.5 h post-induction vs induction); higher = less antimicrobial activity (less host growth inhibition)
- Experimental Conditions: time post-induction: 4.5 h; library: site-saturation at positions 5, 18, 19, 20
So I've got a bunch of sequences here, and I need their shrunken log2 fold change values.

These recorded examples may help you get a feel for the data.
> print(dat)
             residue.codes               readout.kind  result
1  RRIRWRPPRLPRPRPRPKYQPRP  shrunken log2 fold change  -0.231
2  RRIRRRPPRLPRPRPRPMMQPRP  shrunken log2 fold change   0.112
3  RRIRKRPPRLPRPRPRPRVMPRP  shrunken log2 fold change   0.436
4  RRIRNRPPRLPRPRPRPDQHPRP  shrunken log2 fold change   -0.34
5  RRIRQRPPRLPRPRPRPWPSPRP  shrunken log2 fold change   0.168
6  RRIRERPPRLPRPRPRPPDWPRP  shrunken log2 fold change   0.674
7  RRIRRRPPRLPRPRPRPSDNPRP  shrunken log2 fold change  -0.134
8  RRIRKRPPRLPRPRPRPTNNPRP  shrunken log2 fold change    -0.2

Hi, could you look up shrunken log2 fold change for each item in my list?
1. RRIRRRPPRLPRPRPRPTSLPRP
2. RRIRLRPPRLPRPRPRPWSYPRP

1: 0.0087; 2: -1.41

Hi, could you look up shrunken log2 fold change for each item in my list?
1. RRIRDRPPRLPRPRPRPQHNPRP
2. RRIRTRPPRLPRPRPRPFYTPRP
3. RRIRTRPPRLPRPRPRPWKSPRP
4. RRIRLRPPRLPRPRPRPEKTPRP
5. RRIRFRPPRLPRPRPRPGLCPRP

1: -0.554; 2: -0.373; 3: -0.0257; 4: -0.00142; 5: 0.606

Hi, could you look up shrunken log2 fold change for each item in my list?
1. RRIRFRPPRLPRPRPRPVAKPRP
2. RRIRYRPPRLPRPRPRPVWPPRP
3. RRIRARPPRLPRPRPRPEECPRP
4. RRIRSRPPRLPRPRPRPQSGPRP
5. RRIRHRPPRLPRPRPRPRERPRP

1: -0.0163; 2: 9.23e-05; 3: 1.27; 4: -0.101; 5: 0.392

Hi, could you look up shrunken log2 fold change for each item in my list?
1. RRIRRRPPRLPRPRPRPLPMPRP
2. RRIRDRPPRLPRPRPRPGWTPRP
3. RRIRHRPPRLPRPRPRPYGYPRP

[0.541, 0.379, -0.22]
